# Study target: T1, human CD3 (human, UniProt P07766 23-207; P09693 23-182; P04234 22-171)
# T1 construct: whole, on cells; also called CD3 on Jurkat T cells; CD3 on primary human T cells
# Assay overview: flow competition on Jurkat, 100 nM unlabeled mAb; competitor AF488-OKT-3 mIgG2b 1.5 nM
Experimental readout: % residual fluorescence of labeled mAb

Bench note: what % residual fluorescence of labeled mAb did F332-5F2 (antibody, mouse IgG2b, V domains shown, also called F332-5F2-2; F332-5F2 (6G8, 13A3)) VH: QVQLQQPGAELGKPGTSVKLSCKASGYTFTSYWMHWVKQRPGQGLEWIGNINPNGGDSNYNEKFKSKATLTVDKSSSTAYMQLSTLTSEDSAVYYCTRDISGQYYFDFWGQGTSLTVFS VL: DILMSQSPSSLAVSAGEQVTMSCKSSQSLLNSRTRKNYLAWYQQKPGQSPKLLIFWASTRKSGVPDRFTGSGSGTYFTLTISSVQAEDLAVYYCTQSYNLRTFGGGTKLEIK show?
90%

So what's the measured % residual fluorescence of labeled mAb for this one? F332-7E3 (antibody, mouse IgG2a, V domains shown, also called F332-7E3-2) VH: QVQLQQPGAELGKPGTSVKLSCKASGYTFTSYWIHWVKQRPGQGLEWIGNINPNSGSINYNEKFKSKATLTVDKSSSTAYMQLSTLTSEDFAVYYCTRDTSGQYYFDYWGQGTTLTVSS VL: DIVMSQSPSSLAVSAGEKVTMSCKSSQSLLNSRTRKNYLAWYQQKPGQSPKLLIYWASTRESGVPDRFTGSGSGTDFTLTISSVQAEDLAVYYCKQSYHLRTFGGGTKLEIK
79%

Request the reported % residual fluorescence of labeled mAb associated with F332-1E2 (antibody, mouse IgG2a, V domains shown, Sister clone 8C5 shares the same entries; also called F332-1E2-2; F332-1E2 (8C5)) VH: QVQLQQPGAELGKPGTSVKLSCKASGYTFTSYWIHWVKQRPGQGLEWVGNINPNSGSINYNEKFKNKATLTVDKSSSTAYMQLSTLTSEDFAVYYCTRDTSGQYYFDYWGQGTTLTVSS VL: DIVMSQSPSSLAVSAGERVTMSCKSSQSLLNSRTRKNYLAWYQQKPGQSPKLLIYWASTRESGVPDRFTGSGSGTDFTLTISSVQAEDLAVYYCIQSYHLRTFGGGTKLEIK
77%
